# assay: Half life in dog
# Assay type: ADME, organism-based, Canis lupus familiaris
# condition.set: in vivo
readout.type: half-life (h)
Numeric answer only, unit h assumed.

Task item: # get_value(readout='half-life', item= O=c1ccc2c([C@@H](O)CNCCc3ccc(CCN4CCC(Cn5cnc([C@](O)(c6ccccc6)C6CCCCC6)n5)CC4)cc3)ccc(O)c2[nH]1 )
Reply: 4

* * *

# assay: Half life in rat
# Assay type: ADME, organism-based
# condition.set: in vivo
readout.type: half-life
Please give the number followed by its unit.

Task item: # get_value(readout='half-life', item= O=c1ccc2c([C@@H](O)CNCCc3ccc(CCN4CCC(Cn5cnc([C@](O)(c6ccccc6)C6CCCCC6)n5)CC4)cc3)ccc(O)c2[nH]1 )
Reply: 1.7 h

* * *

# assay: Clearance in human liver microsomes
# Type: ADME
# condition.set: read-out: CLH
readout.type: microsomal CLint (µL/min/mg)
Numeric answer only, unit µL/min/mg assumed.

CC(C)N(CC[C@H](c1ccccc1)c1cc(CCCCOc2ccc(CCNC[C@H](O)c3ccc(O)c4[nH]c(=O)ccc34)cc2)ccc1O)C(C)C: 74
O=c1ccc2c([C@@H](O)CNCCCCCCCCCN3CCC(Cn4cnc([C@](O)(c5ccccc5)C5CCCCC5)n4)CC3)ccc(O)c2[nH]1: 133
O=c1ccc2c([C@@H](O)CNCCCCCCCCCN3CCC(Cn4cnc(C(O)(c5ccccc5)C5CCCCC5)n4)CC3)ccc(O)c2[nH]1 (some centres undefined): 160

Next up:
Task item: # get_value(readout='microsomal CLint', item= O=c1ccc2c([C@@H](O)CNCCc3ccc(CCN4CCC(Cn5cnc([C@](O)(c6ccccc6)C6CCCCC6)n5)CC4)cc3)ccc(O)c2[nH]1 )
Reply: 130

* * *

# study.system: Muscarinic acetylcholine receptor M1 (Homo sapiens)
# Sequence (P11229 whole entry): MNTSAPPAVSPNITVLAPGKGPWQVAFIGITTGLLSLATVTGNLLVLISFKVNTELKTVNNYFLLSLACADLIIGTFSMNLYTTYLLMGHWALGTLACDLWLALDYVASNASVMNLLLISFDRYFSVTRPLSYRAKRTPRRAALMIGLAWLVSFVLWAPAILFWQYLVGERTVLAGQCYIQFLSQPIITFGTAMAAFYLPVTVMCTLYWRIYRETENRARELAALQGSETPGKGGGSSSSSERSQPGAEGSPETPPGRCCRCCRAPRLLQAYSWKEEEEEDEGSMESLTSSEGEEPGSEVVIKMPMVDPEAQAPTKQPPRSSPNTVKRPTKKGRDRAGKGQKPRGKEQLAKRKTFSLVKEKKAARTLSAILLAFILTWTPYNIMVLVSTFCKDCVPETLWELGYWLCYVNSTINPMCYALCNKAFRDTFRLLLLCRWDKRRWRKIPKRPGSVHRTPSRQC
# assay: Antagonist activity at muscarinic M1 receptor (unknown origin)
readout.type: Ki (nM)
Numeric answer only, unit nM assumed.

Task item: # get_value(readout='Ki', item= O=c1ccc2c([C@@H](O)CNCCc3ccc(CCN4CCC(Cn5cnc([C@](O)(c6ccccc6)C6CCCCC6)n5)CC4)cc3)ccc(O)c2[nH]1 )
Reply: 0.16

* * *

# assay: Drug metabolism in human liver microsomes assessed as glucuronidation in absence of NADPH and presence of microsomal activator Brij58, UDPGA
# Format: ADME
# condition.set: read-out: Drug metabolism
readout.type: microsomal CLint

Known results for molecules:
O=c1ccc2c([C@@H](O)CNCCc3ccc(CCN4CCC(Cn5cnc(C(O)(c6ccccc6)c6ccccc6)n5)CC4)cc3)ccc(O)c2[nH]1: < 3 µL/min/mg
O=c1ccc2c([C@@H](O)CNCCCCCCCCCN3CCC(Cn4cnc(C(O)(c5ccccc5)c5ccccc5)n4)CC3)ccc(O)c2[nH]1: < 3 µL/min/mg

Task item: # get_value(readout='microsomal CLint', item= CC(C)N(CC[C@H](c1ccccc1)c1cc(CCCCOc2ccc(CCNC[C@H](O)c3ccc(O)c4[nH]c(=O)ccc34)cc2)ccc1O)C(C)C )
Reply: < 3 µL/min/mg
